# Tested on: P388 leukemia ip, CD2F1 mice, survival T/C
# Method Summary: NCI In Vivo Anticancer Drug Screen. Data for tumor model P388 Leukemia (intraperitoneal) in CD2F1 (CDF1) mice
# Test Parameters: endpoint: median survival time; dose: 200.0 mg/kg/injection; schedule: Q01DX005 (ip); vehicle: saline with Tween-80; higher = longer survival
Inconclusive results and toxic doses are left out.
Form field: T/C (one value per entry).

Illustrative cases are given below, each with its answer.
# Molecule, T/C
rows = [
    ("COc1cc(N=Nc2cc(CN(C)C)c(O)c3ncccc23)c(OC)cc1N=Nc1c(Cl)cc([N+](=O)[O-])cc1Cl", "109 % of control"),
    ("CC[Si](CC)(CC)OC(C#N)c1ccc2c(c1)OCO2 (stereo not drawn)", "100 % of control"),
]

Attention now shifts to the item below.
Value lookup for T/C; key = C=CCCCC1(c2ccccc2)C(=O)Oc2ccccc21 (stereo not drawn)
90 % of control

----------
# Tested on: P388 leukemia ip, CD2F1 mice, survival T/C
# Method Summary: NCI In Vivo Anticancer Drug Screen. Data for tumor model P388 Leukemia (intraperitoneal) in CD2F1 (CDF1) mice
# Test Parameters: endpoint: median survival time; dose: 100.0 mg/kg/injection; schedule: Q01DX005 (ip); vehicle: saline with Tween-80; higher = longer survival
Toxic doses and inconclusive results are not listed.
Value Kind: T/C

Illustrative cases are given below, each with its answer.
# Compound String, T/C
measured = [
    ("CN(c1ncc(Cc2cnc(N(C)C3CCN(Cc4ccccc4)CC3)nc2)cn1)C1CCN(Cc2ccccc2)CC1", "96 % of control"),
    ("N#Cc1ccc(NN=NCCCCl)cc1", "121 % of control"),
    ("CCOC(=O)/C=C(/C)SC1=CC(=O)C=CC1=O", "92 % of control"),
]

Value lookup for T/C; key = COCCN1C(N)=C(C#N)C=C2CCCC(N=C(C#N)C#N)=C21
102 % of control

----------
Form field: T/C (one value per entry).
# Test system: P388 leukemia ip, CD2F1 mice, survival T/C
# Method Summary: NCI In Vivo Anticancer Drug Screen. Data for tumor model P388 Leukemia (intraperitoneal) in CD2F1 (CDF1) mice
# Test Parameters: endpoint: median survival time; dose: 12.5 mg/kg/injection; schedule: Q01DX009 (ip); vehicle: saline; higher = longer survival
Inconclusive results and toxic doses are left out.

Illustrative cases are given below, each with its answer.
# Molecule, T/C
records = [
    ("Cc1cc(C)n2ncnc2n1", "105 % of control"),
    ("CC1(c2ccc3ccccc3c2)C(C#N)(C#N)C1(C#N)C#N", "100 % of control"),
    ("Cc1cc[n+](C)c(-c2ccccc2)c1", "104 % of control"),
    ("CC(C)C(O)(C(=O)OCN1C(=O)C2C3C=CC(C2C1=O)C1C2C(=O)N(COC(=O)C(O)(C(C)C)C(C)O)C(=O)C2C31)C(C)O (stereo unspecified)", "110 % of control"),
    ("CCCC(=O)NN=C(C)C", "104 % of control"),
]

Attention now shifts to the item below.
Write down the reported T/C of CC(=O)NCC(O)CNC(C)=O , test system: P388 leukemia ip, CD2F1 mice, survival T/C.
97 % of control

----------
Form field: T/C (one value per entry).
# Tested on: P388 leukemia ip, CD2F1 mice, survival T/C
# Method Summary: NCI In Vivo Anticancer Drug Screen. Data for tumor model P388 Leukemia (intraperitoneal) in CD2F1 (CDF1) mice
# Test Parameters: endpoint: median survival time; dose: 400.0 mg/kg/injection; schedule: Q01DX009 (ip); vehicle: saline with Tween-80; higher = longer survival
Inconclusive results and toxic doses are left out.

# Compound, Assay Value
records = [
    ("CCC(=O)Oc1ccc[nH]c1=O", "122 % of control"),
    ("Nc1ccc(-c2ccc(N)cc2)cc1", "95 % of control"),
    ("O=C(Nc1ccc2c(c1)Cc1cccc(NC(=O)C(Cl)Cl)c1-2)C(Cl)Cl", "100 % of control"),
    ("CN(C)/N=N/c1nc[nH]c1C(N)=O", "86 % of control"),
    ("CCCCC(C)C(=O)/C=C/c1ccccc1 (stereo not given)", "117 % of control"),
]

Value lookup for T/C; key = COc1cccc(OC)c1N
90 % of control

Value lookup for T/C; key = COc1cc2c(cc1OC)C(Cc1ccc3cc(OC)c(OC)cc3c1)=NCC2
100 % of control
